- Tested on: F508del (Homo sapiens, UniProt P13569, DEL508-508)
- Construct: expressed in transfected cells
- Sequence (P13569 with tags, fused parts or gaps DEL508-508): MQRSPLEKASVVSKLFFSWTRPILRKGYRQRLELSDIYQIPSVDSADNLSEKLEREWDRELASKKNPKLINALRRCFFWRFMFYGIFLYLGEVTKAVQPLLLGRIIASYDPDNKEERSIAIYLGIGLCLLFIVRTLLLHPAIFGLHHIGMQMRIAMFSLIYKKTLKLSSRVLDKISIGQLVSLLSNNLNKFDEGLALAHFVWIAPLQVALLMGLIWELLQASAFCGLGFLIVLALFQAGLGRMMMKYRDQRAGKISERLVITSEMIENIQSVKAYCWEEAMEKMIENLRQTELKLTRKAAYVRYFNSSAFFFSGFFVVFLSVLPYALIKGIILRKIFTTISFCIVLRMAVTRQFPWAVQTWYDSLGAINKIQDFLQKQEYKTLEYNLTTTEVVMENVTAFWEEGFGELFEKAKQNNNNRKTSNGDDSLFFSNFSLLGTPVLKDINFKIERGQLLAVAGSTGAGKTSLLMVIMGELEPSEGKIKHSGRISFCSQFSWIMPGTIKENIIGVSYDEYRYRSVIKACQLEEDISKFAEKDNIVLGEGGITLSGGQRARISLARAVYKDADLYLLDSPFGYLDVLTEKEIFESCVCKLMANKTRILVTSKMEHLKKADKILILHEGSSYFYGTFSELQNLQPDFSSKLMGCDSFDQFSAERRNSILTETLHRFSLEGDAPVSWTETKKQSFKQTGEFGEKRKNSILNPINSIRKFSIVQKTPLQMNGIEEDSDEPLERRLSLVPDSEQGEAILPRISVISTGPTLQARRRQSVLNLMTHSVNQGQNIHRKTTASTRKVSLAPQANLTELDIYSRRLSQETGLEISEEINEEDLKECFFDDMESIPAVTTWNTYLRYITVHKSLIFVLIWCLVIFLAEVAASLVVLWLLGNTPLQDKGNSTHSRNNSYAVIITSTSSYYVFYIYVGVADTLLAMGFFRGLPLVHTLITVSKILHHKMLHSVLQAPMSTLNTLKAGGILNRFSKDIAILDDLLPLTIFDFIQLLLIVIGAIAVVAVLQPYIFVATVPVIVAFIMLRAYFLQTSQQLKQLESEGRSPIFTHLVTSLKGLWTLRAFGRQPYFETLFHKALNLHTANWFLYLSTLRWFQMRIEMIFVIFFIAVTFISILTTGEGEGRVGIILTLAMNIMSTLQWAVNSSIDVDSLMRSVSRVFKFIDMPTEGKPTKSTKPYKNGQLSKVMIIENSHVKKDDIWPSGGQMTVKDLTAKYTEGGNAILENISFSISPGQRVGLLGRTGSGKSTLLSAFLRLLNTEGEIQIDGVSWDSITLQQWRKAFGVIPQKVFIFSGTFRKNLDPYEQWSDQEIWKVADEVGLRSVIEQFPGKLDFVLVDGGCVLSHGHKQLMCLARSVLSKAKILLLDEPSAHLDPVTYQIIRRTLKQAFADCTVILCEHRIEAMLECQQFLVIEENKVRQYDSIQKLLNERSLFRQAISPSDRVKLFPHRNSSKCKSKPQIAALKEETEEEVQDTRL
- Protocol details: Protocol 2: FRET membrane potential optical assay (VIPR), identification of correction compounds
- Format: cell-based
- Reported conditions: Table 3; compounds of Table 1 as modulators of CFTR activity; protocol not stated
Experimental endpoint: EC30

CC1CCCN(c2nc(-c3ccc(OC(C)C)nc3)ccc2C(=O)NS(=O)(=O)c2cccc(N)n2)C1 (stereo not shown) [Compound 321] ... +++ (“+++” means <3 uM)
Cc1cccc(C)c1CN1Cc2ccccc2C1(C)C(=O)NS(=O)(=O)c1cccc(N)n1 (stereo not shown) [Compound 790] ... +++ (“+++” means <3 uM)
CC(C)COc1cc(F)cc(-c2ccc(C(=O)NS(=O)(=O)c3cccc(N)n3)c(N3CCCCC3)n2)c1 [Compound 380] ... +++ (“+++” means <3 uM)

* * *

- Tested on: F508del (Homo sapiens, UniProt P13569, DEL508-508)
- Construct: expressed in transfected cells
- Protocol details: Protocol 2: FRET membrane potential optical assay (VIPR), identification of correction compounds
- Type: cell-based
- Reported conditions: F508del CFTR modulator activity; compounds of Table 1; read-out: EC30
Experimental endpoint: EC30

CC1CN(c2ncccc2C(=O)NS(=O)(=O)c2cccc(OCc3cnn(-c4ccccc4)c3)n2)C(C)(C)C1 (centres unmarked) ... < 3000 nM
COc1cc(CO)cc(-c2ccc(C(=O)NS(=O)(=O)c3cccnc3N)c(N3C[C@@H](C)CC3(C)C)n2)c1 ... < 3000 nM
C[C@@H]1CN(c2nc(-c3cc(F)ccc3F)ccc2C(=O)NS(=O)(=O)N2CC[C@H](N)C2)C(C)(C)C1 ... 3000 to 10000 nM
CC1CN(c2ncccc2C(=O)NS(=O)(=O)c2cccc(NCc3cc(F)cc(F)c3)n2)C(C)(C)C1 (centres unmarked) ... < 3000 nM

If you can, please state the reported EC30 value of CC1CN(c2ncccc2C(=O)NS(=O)(=O)c2cccc(Nc3ccc4[nH]ncc4c3)n2)C(C)(C)C1 (centres unmarked) .
3000 to 10000 nM

EC30 lookup needed for C[C@@H]1CN(c2nc(C3CCCCO3)ccc2C(=O)NS(=O)(=O)c2cccnc2N)C(C)(C)C1 (some centres unmarked) [Compound 2351] , thanks.
< 3000 nM

State the recorded EC30 for this entry: CC(C)(C)c1ccc(C(=O)NS(=O)(=O)c2cccc(N)n2)c(N2CCC(C3CCOCC3)C2(C)C)n1 (centres unmarked) [Compound 2139]
< 3000 nM

Request the reported EC30 associated with C[C@@H]1CN(c2nc(-c3ccccc3OC(F)(F)F)ccc2C(=O)NS(=O)(=O)c2ccc[nH]c2=O)C(C)(C)C1
< 3000 nM

What does the data say about its EC30? Entry: Cc1cc(O)ccc1-c1ccc(C(=O)NS(=O)(=O)c2cccnc2N)c(N2C[C@@H](C)CC2(C)C)n1
3000 to 10000 nM

What value of measured EC30 is listed for CC1CN(c2ncccc2C(=O)NS(=O)(=O)c2cccc(Nc3ccccc3)n2)C(C)(C)C1 (centres unmarked) ?
< 3000 nM

* * *

- Tested on: F508del (Homo sapiens, UniProt P13569, DEL508-508)
- Construct: expressed in transfected cells
- Protocol details: Protocol 2: FRET membrane potential optical assay (VIPR), identification of correction compounds
- Assay type: cell-based
- Reported conditions: F508del CFTR modulator activity; compounds of Table 1; read-out: EC30
Catalogue of EC30 readings, one per entry.

// known answers, use as guide
CC(=O)Nc1cccc(Nc2cccc(S(=O)(=O)NC(=O)c3cccnc3N3CC(C)CC3(C)C)n2)c1 (stereo not shown) ... 3 to 10 µM
CCOCCOc1ccc(C(=O)NS(=O)(=O)c2cccnc2N)c(N2C[C@@H](C)CC2(C)C)n1 ... < 3 µM
COc1cc(F)cc(-c2ccc(C(=O)NS(=O)(=O)c3ccc[nH]c3=O)c(N3C[C@@H](C)CC3(C)C)n2)c1 ... < 3 µM

# ---- query molecule ----
Quick one: EC30 for CC(=O)c1ccc(Oc2cccc(S(=O)(=O)NC(=O)c3cccnc3N3CC(C)CC3(C)C)n2)cc1 (stereo not shown) ?
3 to 10 µM
